Method: In vivo lipid metabolism by IV: ionizable lipid concentration in plasma and liver by LC-MS/MS
Parameters: species or system Sprague-Dawley (SD) rats
Condition Summary: male, Sprague-Dawley, rat, plasma, iv, 0.15 mg/kg, 168 h post injection, IV 0.15 mg/kg RNA-LNPs (hEPO), male SD rats, individual animals N=3; read-out: Plasma (ng/mL), ionizable lipid concentration
Protocol: In Vivo Lipid Metabolism by IV 7-8 week old, male Sprague-Dawley (SD) rats (N=3) were injected with 0.15 mg*kg−1 of RNA-LNPs encoding for hEPO by intravenous injection. […] Both plasma and liver samples were used for ionizable lipid concentration quantification by LC-MS/MS. The lower limit of quantitation (LLOQ) is 1 ng/mL in plasma or 11 ng/g in liver. BQL—Below the lower limit of quantitation (LLOQ).
Measurement Name: concentration at 168 h (ng/mL)
Quick note: give the figure in ng/mL, leave out the unit.

# input # get_value(readout='concentration at 168 h', item= CCCCCCCCC(CCCCCC)C(=O)OCCCCCCCCOC(=O)NC(COC(=O)NCCN1CCCCC1)C(=O)OCCCCCCCCOC(=O)C(CCCCCC)CCCCCCCC (stereo not shown) )
# output 9.51

* * *

Method: In vivo lipid metabolism by IV: ionizable lipid concentration in plasma and liver by LC-MS/MS
Design: species or system Sprague-Dawley (SD) rats
Condition Summary: male, Sprague-Dawley, rat, liver, iv, 0.15 mg/kg, 6 h post injection, IV 0.15 mg/kg RNA-LNPs (hEPO), male SD rats, individual animals N=3; read-out: Liver (ng/g), ionizable lipid concentration
For each entry below, report its concentration at 6 h value.
Quick note: give the figure in ng/g, leave out the unit.

# input # get_value(readout='concentration at 6 h', item= CCCCCCCC/C=C\CCCCCCCC(=O)NC(COC(=O)NCCN1CCCCC1)C(=O)OCCCCCCCCOC(=O)C(CCCCCC)CCCCCCCC (centres unmarked) )
# output 26800

# input # get_value(readout='concentration at 6 h', item= CCCCC/C=C\C/C=C\CCCCCCCCOC(=O)NC(COC(=O)NCCN1CCCCCC1)C(=O)OCCCCCC(=O)OCC(CCCCCCCC)CCCCCCCCCC (centres unmarked) )
# output 29400

# input # get_value(readout='concentration at 6 h', item= CCCCCCCCC(CCCCCC)C(=O)OCCCCCCCCOC(=O)NC(COC(=O)NCCN1CCCCC1)C(=O)OCCCCCCCCOC(=O)C(CCCCCC)CCCCCCCC (centres unmarked) )
# output 48800

# input # get_value(readout='concentration at 6 h', item= CCCCCCCCCCCOC(=O)CCCCCOC(=O)C(COC(=O)NCCN1CCCCCC1)NC(=O)OCCCCCCCCOC(=O)C(CCCCCC)CCCCCCCC (centres unmarked) )
# output 1410

# input # get_value(readout='concentration at 6 h', item= CCCCCCCCCC(=O)OCCCCCCCOC(=O)C(COC(=O)NCCN1CCCCCC1)NC(=O)OCCCCCCCCOC(=O)C(CCCCCC)CCCCCCCC (centres unmarked) )
# output 14

# input # get_value(readout='concentration at 6 h', item= CCCCCCCCCCC(CCCCCCCC)COC(=O)CCCCCOC(=O)NC(COC(=O)NCCN1CCCCCC1)C(=O)OCCCCCC(=O)OCC(CCCCCCCC)CCCCCCCCCC (centres unmarked) )
# output 48100

# input # get_value(readout='concentration at 6 h', item= CCCCC/C=C\CCOC(=O)CCCCCOC(=O)C(COC(=O)NCCN1CCCCCC1)NC(=O)OCCCCCCCCOC(=O)C(CCCCCC)CCCCCCCC (centres unmarked) )
# output 668

# input # get_value(readout='concentration at 6 h', item= CCCCCCCCCCC(CCCCCCCC)COC(=O)CCCCCOC(=O)NC(COC(=O)NCCN1CCCCC1)C(=O)OCCCCCC(=O)OCC(CCCCCCCC)CCCCCCCCCC (centres unmarked) )
# output 36500

* * *

For each entry below, report its concentration at 6 h value.
Method: In vivo lipid metabolism by IV: ionizable lipid concentration in plasma and liver by LC-MS/MS
Parameters: species or system Sprague-Dawley (SD) rats
Condition Summary: male, Sprague-Dawley, rat, plasma, iv, 0.15 mg/kg, 6 h post injection, IV 0.15 mg/kg RNA-LNPs (hEPO), male SD rats, individual animals N=3; read-out: Plasma (ng/mL), ionizable lipid concentration
Quick note: give the figure in ng/mL, leave out the unit.

# input # get_value(readout='concentration at 6 h', item= CCCCC/C=C\CCOC(=O)CCCCCOC(=O)C(COC(=O)NCCN1CCCCCC1)NC(=O)OCCCCCCCCOC(=O)C(CCCCCC)CCCCCCCC (stereo not shown) [Lipid 955] )
# output 17

# input # get_value(readout='concentration at 6 h', item= CCCCCCCCC(CCCCCC)C(=O)OCCCCCCCCOC(=O)NC(COC(=O)NCCN1CCCCC1)C(=O)OCCCCCCCCOC(=O)C(CCCCCC)CCCCCCCC (stereo not shown) [Lipid 888] )
# output 966

# input # get_value(readout='concentration at 6 h', item= CCCCCCCCCCC(CCCCCCCC)COC(=O)CCCCCOC(=O)NC(COC(=O)NCCN1CCCCCC1)C(=O)OCCCCCC(=O)OCC(CCCCCCCC)CCCCCCCCCC (stereo not shown) [Lipid 1021] )
# output 1480

# input # get_value(readout='concentration at 6 h', item= CCCCCCCCCCC(CCCCCCCC)COC(=O)CCCCCOC(=O)NC(COC(=O)NCCN1CCCCC1)C(=O)OCCCCCC(=O)OCC(CCCCCCCC)CCCCCCCCCC (stereo not shown) [Lipid 1020] )
# output 1210

* * *

For each entry below, report its PDI value.
Method: LNP size and polydispersity index (PDI) by dynamic light scattering (Zetasizer)
Assay type: physicochemical
Condition Summary: Formulation No. 001, RNA No. 331
Field format: numeric only.

# input # get_value(readout='PDI', item= "CCCCC/C=C\C/C=C\CCCCCCCC(=O)N[C@@H](COC(=O)NCCN1CCCCCC1)C(=O)OCCCCCCCC(=O)OC(CCCCCCCC)CCCCCCCC" )
# output 0.08

# input # get_value(readout='PDI', item= CCCCC/C=C\C/C=C\CCCCCCCC(=O)NC(COC(=O)NCCN1CCCCCC1)C(=O)OCCCCCC(=O)OCC(CCCCCCCC)CCCCCCCCCC (stereo not drawn) )
# output 0.08

# input # get_value(readout='PDI', item= CCCCC/C=C\C/C=C\CCCCCCCC(=O)NC(COC(=O)NCCN1CCCCC1)C(=O)OCCCCCCCC(=O)OC(CCCCCCCC)CCCCCCCC (stereo not drawn) )
# output 0.04

* * *

Tested on: Hep G2 cells
Method: In vitro toxicity: Hep G2 cell viability by CellTiter-Glo
Assay type: cell-based
Condition Summary: 1 μg/mL RNA-LNPs, 72 hours post transfection, cell only = 100%, Formulation 001, RNA 331
Measurement Name: In vitro cell viability (%) (Mean)
Quick note: give the figure in %, leave out the unit.

# input Query for Hep G2 cells: what In vitro cell viability (%) (Mean) does the record show for "CCCCC/C=C\C/C=C\CCCCCCCC(=O)N[C@@H](COC(=O)NCCN1CCCCC1)C(=O)OCCCCCCCC(=O)OC(CCCCCCCC)CCCCCCCC" ?
# output 81.18

# input Query for Hep G2 cells: what In vitro cell viability (%) (Mean) does the record show for CCCCCCCC/C=C\CCCCCCCC(=O)NC(COC(=O)NCCN1CCCCCC1)C(=O)OCCCCCCCCOC(=O)C(CCCCCC)CCCCCCCC (stereo not drawn) ?
# output 74.24

# input Query for Hep G2 cells: what In vitro cell viability (%) (Mean) does the record show for CCCCC/C=C\C/C=C\CCCCCCCC(=O)NC(COC(=O)NCCN1CCCCC1)C(=O)OCCCCCCCC(=O)OC(CCCCCCCC)CCCCCCCC (stereo not drawn) ?
# output 79.09

# input Query for Hep G2 cells: what In vitro cell viability (%) (Mean) does the record show for CCCCC/C=C\C/C=C\CCCCCCCC(=O)NC(COC(=O)NCCN1CCCCCC1)C(=O)OCCCCCC(=O)OCC(CCCCCCCC)CCCCCCCCCC (stereo not drawn) ?
# output 65.07

# input Query for Hep G2 cells: what In vitro cell viability (%) (Mean) does the record show for "CCCCC/C=C\C/C=C\CCCCCCCC(=O)N[C@@H](COC(=O)NCCN1CCCCCC1)C(=O)OCCCCCCCC(=O)OC(CCCCCCCC)CCCCCCCC" ?
# output 82.68

# input Query for Hep G2 cells: what In vitro cell viability (%) (Mean) does the record show for CCCCCCCC/C=C\CCCCCCCC(=O)NC(COC(=O)NCCN1CCCCC1)C(=O)OCCCCCCCCOC(=O)C(CCCCCC)CCCCCCCC (stereo not drawn) ?
# output 78.82
